src = patent US20250215029A1

As shown below, each of these compounds has a reported IC50 value.
subject-of-test: pY641-STAT6 in PBMC (Homo sapiens, UniProt P42226)
Construct: Cryopreserved Peripheral Blood Mononuclear Cells (PBMC) are from AllCells; host or cells: cryopreserved PBMC
Sequence (P42226 whole entry): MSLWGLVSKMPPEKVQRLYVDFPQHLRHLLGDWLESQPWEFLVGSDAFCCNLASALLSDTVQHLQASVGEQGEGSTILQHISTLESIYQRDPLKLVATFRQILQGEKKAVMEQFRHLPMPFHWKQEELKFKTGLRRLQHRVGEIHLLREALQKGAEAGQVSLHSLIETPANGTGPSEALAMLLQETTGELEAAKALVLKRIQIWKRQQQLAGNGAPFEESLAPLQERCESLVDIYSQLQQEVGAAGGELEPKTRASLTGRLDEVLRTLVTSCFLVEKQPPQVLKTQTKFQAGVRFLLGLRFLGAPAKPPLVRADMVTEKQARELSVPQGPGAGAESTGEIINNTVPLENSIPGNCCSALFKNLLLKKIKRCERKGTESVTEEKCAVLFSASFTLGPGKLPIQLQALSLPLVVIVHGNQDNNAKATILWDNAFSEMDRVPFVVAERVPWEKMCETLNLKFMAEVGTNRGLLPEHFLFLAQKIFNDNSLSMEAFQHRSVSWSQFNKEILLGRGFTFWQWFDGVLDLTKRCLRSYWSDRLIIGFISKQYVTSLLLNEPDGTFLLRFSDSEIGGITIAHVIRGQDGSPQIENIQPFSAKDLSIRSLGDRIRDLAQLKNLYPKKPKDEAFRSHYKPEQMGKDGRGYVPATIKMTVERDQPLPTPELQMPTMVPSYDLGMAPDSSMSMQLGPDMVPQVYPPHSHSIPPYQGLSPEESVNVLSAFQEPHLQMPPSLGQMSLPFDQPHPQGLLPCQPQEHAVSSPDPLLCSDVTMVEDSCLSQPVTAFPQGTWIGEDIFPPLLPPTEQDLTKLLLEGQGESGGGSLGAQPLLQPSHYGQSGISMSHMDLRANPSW
assay-summary: MSD-pSTAT-PBMC Assay (pSTAT6, IL-4 stimulated)
Type: cell-based
study-conditions: STAT6, PBMC, compound 3 hrs, then 1 ng/mL IL-4 for 10 min; Table 115

{"columns": ["compound", "IC50"],
 "data": [
  ["COCCOC(=O)[C@H](C)NP(=O)(Oc1ccccc1)[C@H](F)c1ccc2sc(C(=O)N[C@H]3CCC[C@H]4CC[C@@H](C(=O)N5C[C@H](c6ccccc6)[C@@H](C#N)C56CC6)N4C3=O)cc2c1 (stereo partly shown) [Compound 351]", "< 100 nM"],
  ["COCCOC(=O)[C@H](COC)NP(=O)(Oc1ccccc1)[C@H](F)c1ccc2sc(C(=O)N[C@H]3CCC[C@H]4CC[C@@H](C(=O)N5C[C@H](c6ccccc6)[C@@H](C#N)C56CC6)N4C3=O)cc2c1 (stereo partly shown) [Compound 348]", "< 100 nM"],
  ["CCCOC(=O)[C@H](C)NP(=O)(Oc1ccccc1)[C@H](F)c1ccc2sc(C(=O)N[C@H]3CCC[C@H]4CC[C@@H](C(=O)N5C[C@H](c6cccnc6)[C@@H](C#N)C56CC6)N4C3=O)cc2c1 (single isomer, unassigned) [Compound 354]", "< 100 nM"],
  ["CCCOC(=O)[C@H](C)NP(=O)(Cc1ccc2sc(C(=O)N[C@H]3CCC[C@H]4CC[C@@H](C(=O)N5CC(c6cnccc6F)C5)N4C3=O)cc2c1)Oc1ccccc1 (stereo partly shown) [Compound 304]", "> 3000 nM"]
]}

====

subject-of-test: Recombinant STAT3 protein (STAT3 (G127-I722)) (Homo sapiens)
Construct: Recombinant STAT3 protein (STAT3 (G127-I722))
assay-summary: STAT3 Fluorescence Polarization (FP) Assay
Assay type: binding
study-conditions: STAT3 (G127-I722) 25 nM, probe 5-FAM-GpYLPQTV-NH2 2 nM, 45-minute incubation; read-out: STAT3 (FP assay IC50 class)

{"columns": ["compound", "IC50"],
 "data": [
  ["COc1ccncc1C1CN(C(=O)[C@@H]2CC[C@@H]3C[C@@H](C(C)C)CC[C@H](NC(=O)c4cc5cc(C(F)P(=O)(O)O)ccc5s4)C(=O)N32)C1 (stereo partly drawn)", "< 100 nM"],
  ["CC(O)C1(c2ccccc2)CN(C(=O)[C@@H]2CC[C@@H]3CCCC[C@H](NC(=O)c4cc5cc(C(F)(F)P(=O)(O)O)ccc5s4)C(=O)N32)C1 (stereo partly drawn)", "100 to 1000 nM"],
  ["O=C(N[C@H]1CCCC[C@H]2CC[C@@H](C(=O)N3CCC(c4cccnc4)C3)N2C1=O)c1ccc2ccc(C(F)P(=O)(O)O)cc2c1 (stereo partly drawn)", "1000 to 10000 nM"],
  ["COc1cc(F)c(C2CN(C(=O)[C@@H]3CC[C@@H]4CCC[C@H](NC(=O)c5cc6cc(CP(=O)(O)O)ccc6s5)C(=O)N43)C2)cn1", "1000 to 10000 nM"],
  ["Cn1ncc(F)c1C1CN(C(=O)[C@@H]2CC[C@@H]3CCC[C@H](NC(=O)c4cc5cc(C(F)P(=O)(O)O)ccc5s4)C(=O)N32)C1 (stereo partly drawn)", "100 to 1000 nM"],
  ["COC[C@@H]1CCN1c1ccncc1C1CN(C(=O)[C@@H]2CC[C@@H]3CCC[C@H](NC(=O)c4cc5cc([C@@H](F)P(=O)(O)O)ccc5s4)C(=O)N32)C1", "< 100 nM"],
  ["N#C[C@@H]1[C@@H](c2cccnc2)CN(C(=O)[C@@H]2CC[C@@H]3CCCC[C@H](NC(=O)c4cc5cc([C@H](F)P(=O)(O)O)ccc5s4)C(=O)N32)C12CC2 (single isomer, unassigned) [Compound 839]", "1000 to 10000 nM"],
  ["CN(CCc1cc[nH]c(=O)c1)C(=O)[C@@H]1CC[C@@H]2CCCC[C@H](NC(=O)c3cc4cc(C(F)(F)P(=O)(O)O)ccc4s3)C(=O)N21", "1000 to 10000 nM"],
  ["O=C(N[C@H]1CCCC[C@H]2CC[C@@H](C(=O)N3C[C@H](c4cccnc4)CC34CC4)N2C1=O)c1cc2cc([C@H](F)P(=O)(O)O)ccc2s1 (single isomer, unassigned)", "1000 to 10000 nM"],
  ["COCCN(C)c1ccncc1C1CN(C(=O)[C@@H]2CC[C@@H]3CCC[C@H](NC(=O)c4cc5cc([C@@H](F)P(=O)(O)O)ccc5s4)C(=O)N32)C1", "< 100 nM"],
  ["CC(C)[C@H]1CC[C@H](NC(=O)c2cc3cc(C(F)P(=O)(O)O)ccc3s2)C(=O)N2[C@H](CC[C@H]2C(=O)N2C[C@@H](C#N)[C@H](c3ccccc3)C2)C1 (single isomer, unassigned)", "1000 to 10000 nM"],
  ["COc1c(Cl)cncc1C1CN(C(=O)[C@@H]2CC[C@@H]3CCC[C@H](NC(=O)c4cc5cc(C(F)P(=O)(O)O)ccc5s4)C(=O)N32)C1 (stereo partly drawn)", "100 to 1000 nM"],
  ["O=C(N[C@H]1CCC[C@H]2CC[C@@H](C(=O)N3CC(c4cncnc4O)C3)N2C1=O)c1cc2cc(CP(=O)(O)O)ccc2s1", "< 100 nM"],
  ["Cc1nnc([C@H]2[C@H](c3ccccc3)CN2C(=O)[C@@H]2CC[C@@H]3CCC[C@H](NC(=O)c4cc5cc(C(F)P(=O)(O)O)ccc5s4)C(=O)N32)o1 (stereo partly drawn) [Compound 673]", "100 to 1000 nM"],
  ["COC1CN(c2ccncc2C2CN(C(=O)[C@@H]3CC[C@@H]4C[C@H](C)C[C@H](NC(=O)c5cc6cc(CP(=O)(O)O)ccc6s5)C(=O)N43)C2)C1", "< 100 nM"],
  ["O=C(N[C@H]1CCC[C@H]2CC[C@@H](C(=O)N3CC(c4ncc(C5CC5)cn4)C3)N2C1=O)c1cc2cc(C(F)(F)P(=O)(O)O)ccc2s1", "1000 to 10000 nM"],
  ["CS(=O)(=O)CC1CN(C(=O)[C@@H]2CC[C@@H]3CCC[C@H](NC(=O)c4cc5cc(C(F)P(=O)(O)O)ccc5s4)C(=O)N32)C1 (stereo partly drawn)", "< 100 nM"],
  ["N#Cc1cccc(C2CN(C(=O)[C@@H]3CC[C@@H]4CCC[C@H](NC(=O)c5cc6cc(C(F)P(=O)(O)O)ccc6s5)C(=O)N43)C2)n1 (stereo partly drawn)", "< 100 nM"],
  ["COc1ccncc1C1CN(C(=O)[C@@H]2CC[C@@H]3CCC[C@H](NC(=O)c4cc5cc(CP(=O)(O)O)ccc5s4)C(=O)N32)C1", "100 to 1000 nM"],
  ["O=C(N[C@H]1CCCC[C@H]2CC[C@@H](C(=O)N3CCC(c4ccn(C5CC5)c(=O)c4)C3)N2C1=O)c1ccc2ccc(C(F)P(=O)(O)O)cc2c1 (stereo partly drawn)", "1000 to 10000 nM"],
  ["N#C[C@H]1CN(C(=O)[C@@H]2CCC[C@@H]3CCCC[C@H](NC(=O)c4cc5cc(C(F)P(=O)(O)O)ccc5s4)C(=O)N32)C[C@@H]1c1ccccc1 (relative stereo)", "1000 to 10000 nM"]
]}

====

subject-of-test: Recombinant STAT3 protein (STAT3 (G127-I722)) (Homo sapiens, UniProt P40763)
Construct: Recombinant STAT3 protein (STAT3 (G127-I722))
Sequence (P40763 127-722): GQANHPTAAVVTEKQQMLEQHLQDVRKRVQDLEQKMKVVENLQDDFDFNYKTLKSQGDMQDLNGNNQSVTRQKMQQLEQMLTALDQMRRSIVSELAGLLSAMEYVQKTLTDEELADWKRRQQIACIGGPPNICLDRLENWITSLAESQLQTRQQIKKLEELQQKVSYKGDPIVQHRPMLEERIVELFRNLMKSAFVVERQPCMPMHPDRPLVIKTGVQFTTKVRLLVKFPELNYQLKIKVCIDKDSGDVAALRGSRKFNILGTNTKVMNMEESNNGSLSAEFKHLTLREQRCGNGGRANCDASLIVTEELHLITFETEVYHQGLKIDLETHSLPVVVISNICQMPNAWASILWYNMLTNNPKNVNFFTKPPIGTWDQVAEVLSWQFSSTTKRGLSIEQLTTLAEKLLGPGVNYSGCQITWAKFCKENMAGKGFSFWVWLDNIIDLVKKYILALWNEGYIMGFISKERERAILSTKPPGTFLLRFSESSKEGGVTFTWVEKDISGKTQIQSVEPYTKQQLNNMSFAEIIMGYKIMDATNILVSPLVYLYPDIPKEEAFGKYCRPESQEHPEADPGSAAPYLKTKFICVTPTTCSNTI
assay-summary: STAT3 Fluorescence Polarization (FP) Assay
Assay type: binding
study-conditions: STAT3 (G127-I722) 25 nM, probe 5-FAM-GpYLPQTV-NH2 2 nM, 45-minute incubation; read-out: STAT3 (FP assay IC50 class)
pIC50: −log10 of the molar value.
observed-property: pIC50

{"columns": ["compound", "result"],
 "data": [
  ["O=C(N[C@H]1CCCC[C@H]2CC[C@@H](C(=O)N3CCC(c4ccccc4F)C3)N2C1=O)c1cc2cc(C(F)P(=O)(O)O)ccc2s1 (some centres unmarked)", "5.00 to 6.00"],
  ["CCC[C@@H]1CC[C@H](NC(=O)c2cc3cc([C@H](F)P(=O)(O)O)ccc3s2)C(=O)N2[C@H](CC[C@H]2C(=O)N2CC(c3cnccc3N3CCC3)C2)C1", "6.00 to 7.00"],
  ["Cc1ncccc1C1CN(C(=O)[C@@H]2CC[C@@H]3CCC[C@H](NC(=O)c4cc5cc(C(F)(F)P(=O)(O)O)ccc5s4)C(=O)N32)C1", "> 7.00"],
  ["COC1(c2cncnc2C)CN(C(=O)[C@@H]2CC[C@@H]3CCC[C@H](NC(=O)c4cc5cc(C(F)(F)P(=O)(O)O)ccc5s4)C(=O)N32)C1", "6.00 to 7.00"],
  ["O=C(N[C@H]1CCC[C@H]2CC[C@@H](C(=O)N3CC(c4cnccc4N4CCOCC4)C3)N2C1=O)c1cc2cc([C@H](F)P(=O)(O)O)ccc2s1 (single isomer, unassigned)", "> 7.00"],
  ["Cc1ccncc1C1CN(C(=O)[C@@H]2CC[C@@H]3CCC[C@H](NC(=O)c4cc5cc([C@H](F)P(=O)(O)O)ccc5s4)C(=O)N32)C1 (single isomer, unassigned)", "> 7.00"],
  ["CN=S(C)(=O)CC1(OC)CN(C(=O)[C@@H]2CC[C@@H]3CCC[C@H](NC(=O)c4cc5cc(C(F)(F)P(=O)(O)O)ccc5s4)C(=O)N32)C1 (some centres unmarked)", "6.00 to 7.00"],
  ["CN(C)c1ncncc1C1CN(C(=O)[C@@H]2CC[C@@H]3CCC[C@H](NC(=O)c4cc5cc(C(F)P(=O)(O)O)ccc5s4)C(=O)N32)C1 (some centres unmarked)", "> 7.00"],
  ["N#C[C@@H]1[C@@H](c2ccccc2)CN(C(=O)[C@@H]2CC[C@@H]3CCCC[C@H](NC(=O)c4cc5cc([C@@H](F)P(=O)(O)O)ccc5s4)C(=O)N32)C12CC2 (single isomer, unassigned)", "5.00 to 6.00"],
  ["COc1ccnc(F)c1C1CN(C(=O)[C@@H]2CC[C@@H]3CCC[C@H](NC(=O)c4cc5cc(CP(=O)(O)O)ccc5s4)C(=O)N32)C1", "5.00 to 6.00"],
  ["Cn1ncc(C2CN(C(=O)[C@@H]3CC[C@@H]4CCC[C@H](NC(=O)c5cc6cc(C(F)P(=O)(O)O)ccc6s5)C(=O)N43)C2)c1O (some centres unmarked)", "> 7.00"]
]}
